For each of the compounds below, state its inhibition.
Target: Integrin beta-1 (Homo sapiens) + Integrin alpha-4 (Homo sapiens) (UniProt P13612+P05556)
Sequence (P05556 whole entry, looked up): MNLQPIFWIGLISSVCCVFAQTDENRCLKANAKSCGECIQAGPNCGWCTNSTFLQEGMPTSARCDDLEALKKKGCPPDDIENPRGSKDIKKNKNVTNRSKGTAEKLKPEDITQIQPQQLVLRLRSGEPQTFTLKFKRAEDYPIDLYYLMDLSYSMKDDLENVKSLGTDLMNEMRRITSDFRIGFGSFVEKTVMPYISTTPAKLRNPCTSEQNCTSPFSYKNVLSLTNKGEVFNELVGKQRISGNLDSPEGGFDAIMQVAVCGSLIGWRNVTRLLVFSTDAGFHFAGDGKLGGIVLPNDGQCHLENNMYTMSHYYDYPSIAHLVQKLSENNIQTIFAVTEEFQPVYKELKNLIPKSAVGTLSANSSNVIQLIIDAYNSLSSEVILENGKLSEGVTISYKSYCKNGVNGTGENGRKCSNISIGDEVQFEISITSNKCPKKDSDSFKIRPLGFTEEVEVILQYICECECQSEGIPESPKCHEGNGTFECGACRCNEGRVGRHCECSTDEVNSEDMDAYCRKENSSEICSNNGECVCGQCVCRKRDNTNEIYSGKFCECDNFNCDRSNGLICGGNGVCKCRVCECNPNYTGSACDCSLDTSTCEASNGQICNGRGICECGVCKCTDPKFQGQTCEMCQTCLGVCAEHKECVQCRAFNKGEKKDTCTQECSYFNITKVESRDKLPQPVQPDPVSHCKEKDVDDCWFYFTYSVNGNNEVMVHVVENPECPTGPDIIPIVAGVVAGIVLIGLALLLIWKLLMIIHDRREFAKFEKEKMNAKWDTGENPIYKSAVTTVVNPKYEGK
Sequence (P13612 whole entry, looked up): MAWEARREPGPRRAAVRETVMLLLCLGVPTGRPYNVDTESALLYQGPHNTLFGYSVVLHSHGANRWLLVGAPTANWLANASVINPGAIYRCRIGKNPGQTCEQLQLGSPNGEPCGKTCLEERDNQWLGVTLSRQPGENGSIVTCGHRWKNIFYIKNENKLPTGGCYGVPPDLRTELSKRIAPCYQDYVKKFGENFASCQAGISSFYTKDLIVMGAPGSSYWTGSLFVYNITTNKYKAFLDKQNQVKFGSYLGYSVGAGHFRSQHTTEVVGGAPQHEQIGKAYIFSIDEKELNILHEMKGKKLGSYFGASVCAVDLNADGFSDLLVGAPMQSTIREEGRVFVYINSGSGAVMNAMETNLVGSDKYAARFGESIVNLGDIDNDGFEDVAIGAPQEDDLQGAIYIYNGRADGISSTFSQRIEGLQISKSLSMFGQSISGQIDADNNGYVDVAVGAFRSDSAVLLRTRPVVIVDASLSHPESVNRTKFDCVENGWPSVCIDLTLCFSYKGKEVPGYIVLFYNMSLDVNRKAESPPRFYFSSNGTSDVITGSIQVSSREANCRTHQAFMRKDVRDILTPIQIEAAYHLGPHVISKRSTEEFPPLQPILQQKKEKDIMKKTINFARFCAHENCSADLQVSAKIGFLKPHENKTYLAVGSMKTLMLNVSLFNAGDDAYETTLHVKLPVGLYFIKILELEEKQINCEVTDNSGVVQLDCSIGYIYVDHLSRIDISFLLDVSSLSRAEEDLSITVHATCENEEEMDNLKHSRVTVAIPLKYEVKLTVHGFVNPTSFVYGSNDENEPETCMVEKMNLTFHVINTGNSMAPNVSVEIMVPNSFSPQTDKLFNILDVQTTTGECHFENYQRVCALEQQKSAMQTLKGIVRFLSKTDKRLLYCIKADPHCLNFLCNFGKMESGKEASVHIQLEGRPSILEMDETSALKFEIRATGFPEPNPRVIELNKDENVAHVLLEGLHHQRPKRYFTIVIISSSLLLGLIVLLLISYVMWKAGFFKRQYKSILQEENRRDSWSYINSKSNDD
Assay: inhibition of HUTS-21 binding to VLA-4, pilot screen, VLA-4 allosteric modulator project, U937 cells, HUTS-21 mAb, flow cytometry, validation set (AID 2674);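 also: antibody binding induced by the VLA-4 ligand LDV present at three times its Kd; 0% = LDV ligand with antibody and no compound and 100% = antibody without LDV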
Conditions: HUTS-21 LIBS mAb binding, at 6.7 µM, active compounds read high, binding induced by LDV ligand
Give bare numbers, in %.

Past entries and their recorded results:
compound: O=C(NCCc1nc2ccccc2[nH]1)c1cccc(Br)c1
inhibition / %: 11.9

compound: CC(=O)N1CC2(C)CN(C(C)=O)CC(C)(C1)C2
inhibition / %: 8.25

compound: CCCOc1ccc(-c2cc(C(=O)NCC3CCCO3)c3ccccc3n2)cc1 (stereo unspecified)
inhibition / %: 13.8

compound: O=c1c(-c2ccc3c(c2)OCCO3)coc2cc(OC3OC(CO)C(O)C(O)C3O)ccc12 (stereo unspecified)
inhibition / %: 1.62

Here are 2 compounds. What values of inhibition were reported for them?
1. COc1ccc(C)cc1S(=O)(=O)Nc1ccc(F)cc1
2. COc1ccc(CCCC(=O)O)c(C)c1

Resp:
5.61
-9.06

---

For each of the molecules below, state its GFP response, % of DMSO.
Assay: modulators of CIT2-GFP expression in yeast, confirmation, S. cerevisiae, GFP fusion, cherry picks, mother/daughter gates (AID 2274)
Conditions: S. cerevisiae CIT2-GFP strain, flow cytometry, 3 h; at 10 µM; active compounds read high
Numbers only, in %.

Past entries and their recorded results:
molecule_smiles: Cc1ccc(/C=C2/SC(=S)N(C3CCCCC3)C2=O)o1
GFP response, % of DMSO (%): 98.8
//
molecule_smiles: Cc1cccc(CSc2cccc3cccnc23)c1
GFP response, % of DMSO (%): 88.9
//
molecule_smiles: CCOc1ccccc1/C=C/C(=O)c1ccc(Cl)cc1
GFP response, % of DMSO (%): 103

Here are 5 molecules. What values of GFP response, % of DMSO were reported for them?
1. O=S(=O)(c1ccc(C2CCCCC2)cc1)N1CCOCC1
2. Cc1ccc(C(=O)c2c3ccccc3[n+]([O-])n2CCO)cc1
3. CCOC(=O)CSC1=NC(=O)/C(=C\c2ccc(Cl)cc2)S1
4. Cc1cc(C)nc(S/C=C/C(=O)c2ccccc2)n1
5. CCOc1ccc(-c2noc(-c3ccncc3)n2)cc1OCC

Resp:
1: 100; 2: 96.9; 3: 88.9; 4: 92.2; 5: 102

Here are 6 molecules. What values of GFP response, % of DMSO were reported for them?
1. Nc1ccccc1NC(=O)c1ccccc1
2. CS(=O)(=O)c1nc(-c2cccs2)cc(C(F)(F)F)n1
3. Cc1[nH][nH]c(=O)c1C(c1ccc(N(C)C)c(Br)c1)c1c(C)[nH][nH]c1=O
4. CCOC(=O)/C=C1\SCC(=O)N1Cc1nnc(-c2ccccc2Br)o1
5. Cc1cccn2c(=O)c(/C=C(\C#N)C(=O)NCc3ccco3)c(N3CCOCC3)nc12
6. NC(=O)C1CCN(C(=S)NCCc2ccccc2)CC1

Resp:
1: 101; 2: 94.4; 3: 96.4; 4: 99.7; 5: 100; 6: 101

Here are 2 molecules. What values of GFP response, % of DMSO were reported for them?
1. O=C(COc1c(Br)cc(Br)c2cccnc12)N1CCc2ccccc2C1
2. CCOC(=O)c1ccc(NC(=O)CCc2nc(-c3ccc(Cl)cc3)no2)cc1

Resp:
1. 101
2. 105

Here are 4 molecules. What values of GFP response, % of DMSO were reported for them?
1. C[n+]1ccc(/C=C/c2c[nH]c3ccccc23)cc1
2. COc1cccc(/C=N/NC(=O)CCC(=O)Nc2ccc(Br)cc2)c1
3. COC(=O)c1ccc(C2Nc3cccc4cccc(c34)N2)cc1
4. COc1ccccc1/C=C/C=N/NC(=O)c1cccs1

Resp:
145
98.6
93
99.1

Here are 3 molecules. What values of GFP response, % of DMSO were reported for them?
1. Cc1ccn2c(NC3CCCCC3)c(C)nc2c1
2. CC(=O)c1sc2nc(C)c3c(c2c1N)CCCC3
3. O=[N+]([O-])c1cccc(-c2ccc(/C=N/Nc3nc(N4CCCCC4)nc(N4CCCCC4)n3)o2)c1

Resp:
1: 98.8; 2: 91.7; 3: 101

The molecule `O=C(c1cccc2ccccc12)N1CCN(c2ccccc2F)CC1` showed GFP response, % of DMSO equal to 94.4

meta.source: PubChem BioAssay
